I'd appreciate it if you could supply EC50 values for the items below.
Tested on: Jurkat (clone E6-1) cells with NFAT luciferase reporter
TEST SUMMARY: Jurkat reporter assay (NFAT Luciferase)
Assay type: cell-based
RECORDED CONDITIONS: Homo sapiens; Jurkat NFAT luciferase reporter cells, anti-CD3 stimulation, 6 hr; read-out: Jurkat NFAT EC50

Exercise: What does the data say about its EC50? Entry: Cn1cnnc1-c1cc(F)ccc1-c1cc(-c2nc3cc(CO)c(F)c(F)c3o2)nc(C2CC2)c1 [AFX-1]
Solution: 200 to 1000 nM

Exercise: Check C[C@H]1CCC[C@@H](NCc2cc(C(F)(F)F)c3oc(-c4cccc(-c5ccc(F)cc5-c5nncn5C)c4)nc3c2)C1 (racemic) [FV-2] too.
Solution: < 200 nM

Exercise: Try the compound COC(=O)c1ccc2oc(-c3cc(-c4ccc(F)cc4-c4nncn4C)cc(C4CC4)n3)nc2c1 [ADP-1]
Solution: 10000 to 50000 nM

Exercise: Record: Cn1cnnc1-c1cc(F)ccc1-c1cccc(-c2nc3cc(CN[C@@H]4CCC[C@H]4O)cc(C(F)(F)F)c3[nH]2)c1 [BK-2]
Solution: 1000 to 10000 nM

Exercise: Then this compound: COc1cc(CN[C@H]2C[C@H](O)C2)cc2nc(-c3cccc(-c4ccc(F)cc4-c4nncn4C)c3)oc12 [GY-1]
Solution: 10000 to 50000 nM

Exercise: Another compound to check: C[C@H]1CCCN(Cc2cc(C(F)(F)F)c3[nH]c(-c4cc(-c5ccc(F)cc5-c5nncn5C)cc(C5CC5)n4)nc3c2)C1 [AAZ-10]
Solution: 200 to 1000 nM

Exercise: Record: Cn1cnnc1-c1cc(F)ccc1-c1cc(-c2nc3cc(CO)ccc3o2)nc(C2CC2)c1 [ADQ-1]
Solution: 10000 to 50000 nM

Exercise: And what about the compound CN(Cc1cc(C(F)(F)F)c2[nH]c(-c3cccc(-c4ccc(F)cc4-c4nncn4C)c3)nc2c1)[C@@H]1CCC[C@@H]1O [ID-3] ?
Solution: < 200 nM

Exercise: Same again, this time with Cn1cnnc1-c1cc(F)ccc1-c1cccc(-c2nc3cc(CO)cc(C4CC4)c3o2)c1 [ES-4]
Solution: 1000 to 10000 nM

Exercise: Do the same for Cn1cnnc1-c1cc(F)ccc1-c1cccc(-c2nc3cc(CNCC4COC4)cc(C(F)(F)F)c3o2)c1 [GB-2] please
Solution: < 200 nM

Exercise: Then COC(=O)c1cc2nc(-c3cc(-c4ccc(F)cc4-c4nncn4C)cc(C4CC4)n3)oc2c(F)c1F [AFW-1] ?
Solution: 1000 to 10000 nM

Exercise: Here is the next compound: Cn1cnnc1-c1cc(F)ccc1-c1cccc(-c2nc3cc(C(NCC4CCC4)C(F)(F)F)cc(F)c3o2)c1 (racemic) [IL-6]
Solution: 200 to 1000 nM

Exercise: Again, but for Cn1cnnc1-c1cc(F)ccc1-c1cc(-c2nc3cc(CN[C@@H]4CCC[C@@H]4O)ccc3[nH]2)nc(C2CC2)c1 [AEF-2]
Solution: 200 to 1000 nM

Exercise: And for Cn1cnnc1-c1cc(F)ccc1-c1cccc(-c2nc3cc(CN[C@@H]4CCC[C@@H]4O)cc(C(F)F)c3o2)c1 [EY-2] ?
Solution: < 200 nM

Exercise: Next record, please: Cn1cnnc1-c1cc(F)ccc1-c1cccc(-c2nc3cc(CNCC4(O)CC4)cc(C(F)(F)F)c3o2)c1 [AH-2]
Solution: 200 to 1000 nM

Exercise: Okay, and Cn1cnnc1-c1cc(F)ccc1-c1cccc(-c2nc3cc(CNCCO)cc(C(F)(F)F)c3o2)c1 [AN-2] ?
Solution: 1000 to 10000 nM

Exercise: Try this compound too: Cn1cnnc1-c1cc(F)ccc1-c1cc(-c2nc3cc(CN[C@@H]4CCC[C@@H]4O)cc(F)c3o2)cc(C2CC2)c1 [JM-4]
Solution: < 200 nM

Exercise: Moving on to the next compound: CN(Cc1cc2nc(-c3cccc(-c4ccc(F)cc4-c4nncn4C)c3)oc2c(F)c1F)[C@@H]1CCC[C@@H]1O [JJ-3]
Solution: 200 to 1000 nM

Exercise: Another compound to check: Cc1cc(CO)cc2nc(-c3cc(-c4ccc(F)cc4-c4nncn4C)cc(C4CC4)n3)oc12 [AET-1]
Solution: 1000 to 10000 nM

Exercise: Next up: CN(Cc1cc(C(F)(F)F)c2oc(-c3cccc(-c4ccc(F)cc4-c4nncn4C)c3)nc2c1)CC1(O)CCC1 [IA-1]
Solution: < 200 nM

Exercise: Entry to check: COC1(CNCc2cc(C(F)(F)F)c3oc(-c4cccc(-c5ccc(F)cc5-c5nncn5C)c4)nc3c2)CCC1 [DE-2]
Solution: 200 to 1000 nM

Exercise: Could you do the same for Cn1cnnc1-c1cc(F)ccc1-c1cccc(-c2nc3cc(CN4CCCC[C@H]4CO)cc(C(F)(F)F)c3o2)c1 [JB-2] , please?
Solution: 1000 to 10000 nM

Exercise: One more compound: Cn1cnnc1-c1cc(F)ccc1-c1cccc(-c2nc3cc(CN4CC[C@@H](C#N)C4)cc(C(F)(F)F)c3o2)c1 [DR-2]
Solution: 200 to 1000 nM

Exercise: Now try Cn1cnnc1-c1cc(F)ccc1-c1cccc(-c2nc3cc(CNCCC(F)F)cc(C(F)(F)F)c3o2)c1 [EW-2] .
Solution: < 200 nM

Exercise: Next: Cn1cnnc1-c1cc(F)ccc1-c1cccc(-c2nc3cc(CNCC4(O)CCC4)ccc3o2)c1 [DQ-1]
Solution: < 200 nM

Exercise: Okay, and Cn1cnnc1-c1cc(F)ccc1-c1cc(-c2nc3cc(CNCC4CCC4)c(F)c(F)c3o2)nc(C2CC2)c1 [AGE-1] ?
Solution: < 200 nM

Exercise: Can you handle C[C@@H](O)CNCc1cc(C(F)(F)F)c2oc(-c3cccc(-c4ccc(F)cc4-c4nncn4C)c3)nc2c1 [AL-2] next?
Solution: 200 to 1000 nM

Exercise: Input Cn1cnnc1-c1cc(F)ccc1-c1cccc(-c2nc3cc(CN)cc(C(F)(F)F)c3o2)c1 [EB-1]
Solution: 1000 to 10000 nM

Exercise: Would you mind doing Cn1cnnc1[C@]1(c2cccc(-c3nc4cc(CNCC5CCC5)cc(C(F)(F)F)c4o3)c2)C[C@H](C)C1 [ADZ-1] as well?
Solution: 200 to 1000 nM

Exercise: Cool, now Cc1cc(CO)cc2nc(-c3cccc(-c4ccc(F)cc4-c4nncn4C)c3)oc12 [FE-3]
Solution: 10000 to 50000 nM

----------
TEST SYSTEM: Recombinant human c-Cbl (aa 47-435) (Homo sapiens, UniProt P22681)
Sequence (P22681 47-435): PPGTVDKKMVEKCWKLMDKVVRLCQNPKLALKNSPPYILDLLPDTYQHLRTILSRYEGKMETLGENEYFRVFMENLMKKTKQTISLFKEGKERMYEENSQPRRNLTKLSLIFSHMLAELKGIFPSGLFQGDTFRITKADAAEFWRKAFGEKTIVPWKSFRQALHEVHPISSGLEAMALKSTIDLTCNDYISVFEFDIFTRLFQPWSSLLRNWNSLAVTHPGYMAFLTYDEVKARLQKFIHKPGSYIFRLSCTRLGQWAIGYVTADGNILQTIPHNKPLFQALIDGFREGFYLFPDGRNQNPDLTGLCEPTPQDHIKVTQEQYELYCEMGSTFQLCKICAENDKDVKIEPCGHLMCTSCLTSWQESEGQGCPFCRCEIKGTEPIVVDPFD
TEST SUMMARY: c-Cbl Biochemical Assay (TR-FRET)
RECORDED CONDITIONS: hc-Cbl Biochemical Assay (TR-FRET); read-out: TR-FRET hcCbl IC50
pIC50: −log10 of the molar value.
Answer each item with its documented pIC50.

Exercise: Given the compound Cn1cnnc1-c1cc(F)ccc1-c1cccc(-c2nc3cc(CNCCC4CCCC4)cc(C(F)(F)F)c3o2)c1 [HN-1] , what is its reported pIC50?
Solution: > 6.70

Exercise: Cn1cnnc1-c1cc(F)ccc1-c1cccc(-c2nc3cc(CN)cc(C(F)(F)F)c3o2)c1 [EB-1] , same question.
Solution: 6.00 to 6.70

Exercise: Next up: Cn1cnnc1-c1cc(F)ccc1-c1cccc(-c2nc3cc(CNCC4(O)CCC4)cc(C(F)(F)F)c3o2)c1 [Example Y-3]
Solution: 5.00 to 6.00

Exercise: For Cn1cnnc1CC1(c2cccc(-c3nc4cc(CN5CC[C@@H](O)C5)cc(C(F)(F)F)c4[nH]3)c2)COC1 [ACB-1] then?
Solution: 4.30 to 5.00

Exercise: Another compound to check: Cn1cnnc1-c1cc(F)ccc1-c1cccc(-c2nc3cc(CNCCF)cc(C(F)(F)F)c3o2)c1 [FD-2]
Solution: > 6.70

Exercise: Note, next up: Cn1cnnc1-c1cc(F)ccc1-c1cccc(-c2nc3cccc(C(F)(F)F)c3o2)c1 [Example S-1]
Solution: 5.00 to 6.00

Exercise: Proceed to CCNc1cc(-c2c(-c3nncn3C)cnn2C)cc(-c2nc3cc(CN4CCC5(CC5)C4)cc(C(F)(F)F)c3o2)n1 [AAC-5]
Solution: 4.30 to 5.00
